Each item that follows carries a reported melting point.

// known answers, use as guide
| compound | melting point |
| --- | --- |
| CCC(CC)(CC)C(=O)Nc1nn(C)c2c1sc1ncccc12 | 138 to 139 °C |
| CC(C)(C)OC(=O)N1CCCC[C@@H]1C(=O)c1ccc(Br)cc1 | 124 to 125 °C |
| CCCCCCCCCCCCNC(=O)CC(Br)C(=O)O (stereo unspecified) | 62 to 70 °C |
| Cc1ccc(Oc2c(N3C(C)CCC3C)cc(C(=O)O)cc2S(N)(=O)=O)cc1 (stereo unspecified) | 191 to 193 °C |
| O=C(O)c1ccc2nc3c(c(=O)n2c1)CCC3=Cc1ccccc1 | 153 to 154 °C |
| COCc1cc(CCCOc2c(Cl)cc(-c3noc(C)n3)cc2Cl)on1 | 55.5 to 56 °C |

Need melting point of COc1ccc2c(c1)CC=C(C=Cc1ccc(C#N)cc1)O2 , thanks.
224 to 226 °C

Need melting point of COc1cc(CCc2c(C=O)ccc(OC)c2OC)cc(OC)c1 , thanks.
88 to 89 °C

###

measurement type: melting point

| compound | readout value |
| --- | --- |
| Cc1ccccc1C=C1CCn2c1nc1ccc(C(=O)O)cc1c2=O | 285 to 287 °C |
| COc1cc2c(cc1OC)C(c1sc(N)nc1C)=NCC2 | 233 to 237 °C |
| CCCCCS(=O)(=O)NC(=O)/C(C)=C/c1ccc(OCCOC)cc1Oc1ncc(Cl)cc1Cl | 97 to 98 °C |
| COC(=O)CCCc1cc2cc(Cl)ccc2n1S(=O)(=O)c1cccc2nsnc12 | 123 to 126 °C |
| CCCCS(=O)(=O)Nc1cccc(OCc2ccc3ccccc3n2)c1 | 105 to 106 °C |
| NC(=O)c1nc(C2CC2)nc(NCc2ccco2)c1Cl | 126 to 128 °C |

Need melting point of CC12CCC3C(CC4OC45CC(O)CCC35C)C1CCC2=O (stereo not given) , thanks.
197 to 200 °C

Need melting point of CSc1ccc(-c2nc(SC)c(C#N)c(=O)n2-c2ccc(Br)cc2)cc1 , thanks.
213 to 215 °C

Need melting point of O=C(OCCCl)c1cccc(O)c1 , thanks.
50 °C

Need melting point of CCOCC1(F)CCN([C@@H](c2ccc(C(F)(F)F)cc2CN(Cc2cc(C(F)(F)F)cc(C(F)(F)F)c2)c2nnn(C)n2)C(C)C)CC1 , thanks.
95 °C

###

Each item that follows carries a reported melting point.

| compound | melting point |
| --- | --- |
| O=Cc1cc(Cl)cc2c1OCCC2 | 83 to 86 °C |
| CC(=O)c1ccc(Oc2ccc(Cl)cc2)cc1 | 66 to 68 °C |
| COc1cc(Nc2c(C#N)cnc3cc(C#Cc4cnn(CCN5CCOCC5)c4)sc23)c(Cl)cc1Cl | > 200 °C |
| CCN1C(=O)c2sccc2N(C)c2ncccc21 | 119 to 120 °C |
| O=C1c2ccccc2C(O)N1CCCN1CCN(c2ccc(F)cc2)CC1 (stereo unspecified) | 155 °C |

Need melting point of CC(=O)N1CCn2nc(-c3ccc(F)cc3)c(-c3ccncc3)c2N1 , thanks.
216 to 218 °C

Need melting point of CNC(=O)c1cc(-c2ccc(OC)c(OC)c2)nn(CC(C)C)c1=O , thanks.
111 to 113 °C

Need melting point of COc1ncccc1-c1cc(F)c(F)c(OC2SCC(O)C(O)C2O)c1 (stereo unspecified) , thanks.
127 °C

Need melting point of C=CCc1c(-c2ccc(S(C)(=O)=O)cc2)cnn(CC(F)(F)F)c1=O , thanks.
192 to 195 °C

Need melting point of COC1(c2cccc(Sc3ccc(C(C)=NO)cc3)c2)CCN(CC(F)(F)F)C1 (stereo unspecified) , thanks.
86 to 88 °C

Need melting point of NC(=O)N(O)CC1CCCCCC1 , thanks.
110 to 112 °C

Need melting point of O=C(CN1CCC(Cc2ccccc2)CC1)Nc1cccc(NCc2ccccc2)c1 , thanks.
112 to 114 °C

Need melting point of N#CN=C(Nc1cccnc1)NC(NC(=O)c1ccc(Cl)cc1)C1CCCCC1 (stereo unspecified) , thanks.
190 to 192 °C

###

measurement type: melting point

| given smiles | melting point |
| --- | --- |
| CCOC(=O)C1=C(C)NC(C)=C(C(=O)OCC)C1c1c(SC)sc2ccccc12 | 177 to 179 °C |

Need melting point of COc1cc(C(=O)O)ccc1Cc1cn(C)c2ccc(NC(=O)OC3CCCC3)cc12 , thanks.
157 to 158 °C

Need melting point of C#CCCCOc1c(C)cc(C(N)=O)cc1C , thanks.
81 to 84 °C

Need melting point of CC1(C)OC(C=Cc2cccnc2)=CC1=O , thanks.
68 to 70 °C

Need melting point of C1=Cc2cc(/C=C/c3ccc4c(c3)C=C4)ccc21 , thanks.
132 °C

###

Each item that follows carries a reported melting point.

// known answers, use as guide
| compound | readout value |
| --- | --- |
| CCCCC(=N)NC(=O)Nc1ccccc1Cl | 132 to 134 °C |
| CCOC(=O)c1csc(-c2ccc3nc(CC(C)C)c(CN)c(-c4ccc(C)cc4)c3c2)n1 | 150 to 152 °C |
| CNC(=O)C=Cc1ccc(C(=O)O)cc1 | 270 to 273 °C |
| Cc1c(C)c2c(c(C)c1N)CC(C)(CN1CCC(CCc3ccccc3)CC1)O2 (stereo not given) | 91 to 92 °C |
| Cc1cc(OS(=O)(=O)c2ccccc2)cc2c(C3CCN(C)CC3)c[nH]c12 | 118 °C |
| O=C(Nc1cccc2c(NN3CCOC3=O)ccnc12)c1c(Cl)cccc1Cl | > 250 °C |
| CC(C)(C)c1ccc(C(N)=O)cc1N | 140 to 142 °C |
| O=C(O)Cc1ccc(OCCNC(=O)C2Cc3ccccc3N2S(=O)(=O)c2ccc(-c3cc(C(F)(F)F)ccc3Cl)cc2)cc1 (stereo not given) | 84 °C |

Need melting point of ClC(c1ccccc1)(c1ccccc1)c1ccncc1 , thanks.
84.5 to 86.5 °C

Need melting point of CSCC(C)(C)NC(=O)c1c(I)cccc1-c1ccc(C(F)(F)F)cc1 , thanks.
194 to 196 °C

###

Each item that follows carries a reported melting point.

// known answers, use as guide
| compound | melting point |
| --- | --- |
| Cc1c(CCc2ccccc2)c(=O)oc2cc(OCc3nnn[nH]3)cc(OCc3nnn[nH]3)c12 | 248 to 250 °C |
| CCN(CC)CCNC(=O)c1cc(N(C)S(C)(=O)=O)ccc1OC | 48 to 50 °C |
| CC(C)(C)OC(=O)NC(=O)C(N)OCc1ccccc1 (stereo not given) | 115 to 120 °C |
| CCOc1ccc(C2=NN(C3CCN(S(C)(=O)=O)CC3)C(=O)[C@@H]3CC=CC[C@H]23)cc1OCC | 99 to 102 °C |
| CCOC(=O)CCSc1nnsc1-c1ccccc1 | 57.5 to 58.5 °C |
| CCOC(=O)OCn1c(SCc2nccc3ccsc23)nc2ccccc21 | 90 to 92 °C |
| CN[C@@H](CSC(c1ccccc1)(c1ccccc1)c1ccccc1)C(=O)O | 114 °C |
| N#Cc1cccc(Nc2nc(N)c(C(=O)c3ccccc3C#N)s2)c1 | 235 to 236 °C |
| CCOC(=O)c1nccn1C1C(=O)c2ccccc2N1C(C)=O (stereo not given) | 210 °C |

// switching to the query compound
Need melting point of CCOC(=O)c1ccc(-c2[nH]nc3c2C(=O)c2c(NC(N)=O)cccc2-3)s1 , thanks.
> 280 °C

###

Each item that follows carries a reported melting point.

// known answers, use as guide
| compound | melting point |
| --- | --- |
| O=C(O)Cc1cccc2c(=O)cc(-c3cc(F)cc(F)c3)oc12 | 221 to 223 °C |
| CN1CCCC(CC(=O)c2ccc(Cl)c(Cl)c2)C1 (stereo not given) | 69 to 71 °C |
| CC(=O)Nc1nc2c(nc(NC(C)=O)n2Cc2cccs2)c(=O)[nH]1 | 243 to 244 °C |
| CC1(C)CCC(C)(C)c2cc3c(cc21)OCC=C3Cc1ccc(C(=O)O)cc1 | 200 to 201 °C |

// switching to the query compound
Need melting point of CN(C)C(=O)C(=O)N1CN(C(=O)c2c(F)cccc2F)C(=O)N(c2ccc(Oc3ccc(C(F)(F)F)cc3Cl)cc2F)C1 , thanks.
98 to 100 °C

###

measurement type: melting point

// known answers, use as guide
| molecule | melting point |
| --- | --- |
| COc1ccc2c(c1)c(CCOC(=O)c1cc(O)c3c(c1)C(=O)c1cccc(O)c1C3=O)c(C)n2C(=O)c1ccc(Cl)cc1 | 139 to 146 °C |
| CC(C)c1cc(Cc2cnc(N)nc2N)cc(C(C)C)c1N | 177 to 180 °C |
| Cc1oc2ccccc2c1C(=O)NCc1ccc2cc(O)ccc2c1 | 195 to 198 °C |

// switching to the query molecule
Need melting point of CCOc1ccc(CC(=O)NCCc2ccc(OC(C)C)c(OC(C)C)c2)cc1OCC , thanks.
71 °C
